Origin of measurements: patent US20240239788A1

Target: KRAS protein containing G12D mutation (Homo sapiens (Human), UniProt P01116, G12D)
Sequence (P01116 other isoform, or with tags, fused parts or gaps G12D (already in the parent)): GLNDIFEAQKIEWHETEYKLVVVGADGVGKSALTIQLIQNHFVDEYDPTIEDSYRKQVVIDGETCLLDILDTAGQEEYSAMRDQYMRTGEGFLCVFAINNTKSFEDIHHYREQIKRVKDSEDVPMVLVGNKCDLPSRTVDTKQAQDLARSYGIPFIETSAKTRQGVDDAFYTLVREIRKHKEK
Test: SOS-catalyzed nucleotide exchange assay (GNE), TR-FRET
Assay type: biochemical
Details: biotinylated KRAS G12D, SOS and GTP, 60-minute incubation
Structures can show the parent of a compound that is named as a salt.
Note to self: IC50 under 20 nM means Satisfied, ties and anything higher get Not satisfied.

{"columns": ["MOLECULE", "CATEGORY"],
 "data": [
  ["C[C@]12CCC(CN(c3nc(OC[C@@]45CCCN4C[C@H](F)C5)nc4c(F)c(-c5cc(O)cc(Cl)c5OC(F)(F)F)c(F)cc34)C1)N2", "Satisfied"],
  ["Nc1nc2c(F)ccc(-c3c(Cl)cc4c(N5CC6CCC(C5)N6)nc(OCC5(CN6CCOCC6)CC5)nc4c3F)c2s1", "Not satisfied"],
  ["CN(C)CC1(COc2nc(N3CC4CC(O)C(C3)N4)c3cc(Cl)c(-c4cc(O)cc5ccccc45)c(F)c3n2)CC1 (single isomer, unassigned) [Example 19b]", "Not satisfied"],
  ["Cc1c(Cl)cc2[nH]ccc2c1-c1c(F)cc2c(N3CC4CCC(C3)N4)nc(OCC3(CN(C)C)CC3)nc2c1F", "Not satisfied"],
  ["CN1CCC[C@H]1COc1nc(N2CC3CC[C@@](C)(C2)N3)c2cc(F)c(-c3cc(O)cc4ccccc34)c(F)c2n1", "Not satisfied"],
  ["C#Cc1cccc2cc(O)cc(-c3c(F)cc4c(N5C[C@H]6CC[C@@](C)(C5)N6)nc(OCC5(CN6CC[C@@H](F)C6)CC5)nc4c3F)c12 (single isomer, unassigned) [103a]", "Satisfied"],
  ["CC1CC2CN(c3nc(OCC4(CN(C)C)CC4)nc4c(F)c(-c5cc(O)cc6ccccc56)c(F)cc34)CC1N2 (stereo not drawn)", "Not satisfied"],
  ["NC1(COc2nc(N3CC4CCC(C3)N4)c3cc(Cl)c(-c4cc(O)cc5ccccc45)c(F)c3n2)CCC(O)C1 (stereo not drawn) [Example 108, TFA]", "Not satisfied"],
  ["CN(C)CC1(COc2nc(N3CC4CC(C)(O)C(C3)N4)c3cc(F)c(-c4cc(O)cc5ccccc45)c(F)c3n2)CC1 (stereo not drawn)", "Not satisfied"],
  ["Cc1cc(N)nc(-c2c(Cl)cc3c(N4CC5CC(O)C(C4)N5)nc(OC[C@@]45CCCN4C[C@H](F)C5)nc3c2F)c1C(F)(F)F (single isomer, unassigned) [249b]", "Satisfied"],
  ["COCCNC[C@@]1(COc2nc(N3CC4CC[C@@](C)(C3)N4)c3cc(F)c(-c4c(C(F)(F)F)c(C)cc5[nH]ncc45)c(F)c3n2)CC1(F)F (single isomer, unassigned)", "Not satisfied"]
]}
